Would you kindly list protein stability index for each of these variants?
B1: KCNA3 (parent)
chain: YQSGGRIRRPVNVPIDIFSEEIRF

Variants of: B1
Experiment: protein stability index of a GFP-peptide fusion (GPS, HEK-293T) (PSI 1-6); higher = more stable;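 also: lentivirally expressed fusions sorted by FACS into six bins by GFP to DsRed ratio, PSI derived from sequencing read proportions per bin multiplied by bin number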
Settings: c terminus: a fixed tail appended
Lab note: write the figure by itself, no unit.

Input line: Return value of protein stability index for input "Q2W" , no commentary.
Output line: 1.87

Input line: Return value of protein stability index for input "S3Q" , no commentary.
Output line: 2.44

Input line: Return value of protein stability index for input "R23H" , no commentary.
Output line: 2.37

Input line: Return value of protein stability index for input "P14I" , no commentary.
Output line: 2.88

Input line: Return value of protein stability index for input "G5E" , no commentary.
Output line: 2.58

Input line: Return value of protein stability index for input "E21C" , no commentary.
Output line: 2.51

Input line: Return value of protein stability index for input "R23D" , no commentary.
Output line: 3

Input line: Return value of protein stability index for input "E20N" , no commentary.
Output line: 2.52

Input line: Return value of protein stability index for input "I17S" , no commentary.
Output line: 2.33

Input line: Return value of protein stability index for input "P10A" , no commentary.
Output line: 2.31

Input line: Return value of protein stability index for input "V13A" , no commentary.
Output line: 1.88

Input line: Return value of protein stability index for input "V13L" , no commentary.
Output line: 1.95

Input line: Return value of protein stability index for input "S19H" , no commentary.
Output line: 1.49

Input line: Return value of protein stability index for input "G4I" , no commentary.
Output line: 2.06

Input line: Return value of protein stability index for input "S19Y" , no commentary.
Output line: 2.4

Input line: Return value of protein stability index for input "R23Q" , no commentary.
Output line: 1.72

Input line: Return value of protein stability index for input "I15W" , no commentary.
Output line: 1.92

Input line: Return value of protein stability index for input "Q2V" , no commentary.
Output line: 1.94

Input line: Return value of protein stability index for input "I7V" , no commentary.
Output line: 2.4

Input line: Return value of protein stability index for input "F18K" , no commentary.
Output line: 1.99

Input line: Return value of protein stability index for input "F18G" , no commentary.
Output line: 2.49

Input line: Return value of protein stability index for input "E21F" , no commentary.
Output line: 1.62

Input line: Return value of protein stability index for input "I22A" , no commentary.
Output line: 1.34

Input line: Return value of protein stability index for input "N12H" , no commentary.
Output line: 3.14

Input line: Return value of protein stability index for input "V11E" , no commentary.
Output line: 3.13

Input line: Return value of protein stability index for input "D16T" , no commentary.
Output line: 2.51

Input line: Return value of protein stability index for input "I22D" , no commentary.
Output line: 2.5

Input line: Return value of protein stability index for input "V13Y" , no commentary.
Output line: 1.69

Input line: Return value of protein stability index for input "P10S" , no commentary.
Output line: 2.43

Input line: Return value of protein stability index for input "S3V" , no commentary.
Output line: 2.01

Input line: Return value of protein stability index for input "S19Q" , no commentary.
Output line: 1.68

Input line: Return value of protein stability index for input "I15R" , no commentary.
Output line: 2.41

Input line: Return value of protein stability index for input "G4T" , no commentary.
Output line: 2.28

Input line: Return value of protein stability index for input "Y1T" , no commentary.
Output line: 2.55

Input line: Return value of protein stability index for input "D16W" , no commentary.
Output line: 1.87

Input line: Return value of protein stability index for input "D16I" , no commentary.
Output line: 2.51

Input line: Return value of protein stability index for input "E20T" , no commentary.
Output line: 1.53

Input line: Return value of protein stability index for input "R6Y" , no commentary.
Output line: 1.86

Input line: Return value of protein stability index for input "I7W" , no commentary.
Output line: 2.77

Input line: Return value of protein stability index for input "V13R" , no commentary.
Output line: 2.01

Input line: Return value of protein stability index for input "I22Q" , no commentary.
Output line: 2.86

Input line: Return value of protein stability index for input "D16Q" , no commentary.
Output line: 2.61

Input line: Return value of protein stability index for input "I17H" , no commentary.
Output line: 1.91

Input line: Return value of protein stability index for input "S3K" , no commentary.
Output line: 2.24

Input line: Return value of protein stability index for input "S19R" , no commentary.
Output line: 1.64

Input line: Return value of protein stability index for input "F24R" , no commentary.
Output line: 2.38

Input line: Return value of protein stability index for input "R9P" , no commentary.
Output line: 2.26

Input line: Return value of protein stability index for input "E21I" , no commentary.
Output line: 1.6

Input line: Return value of protein stability index for input "G5R" , no commentary.
Output line: 2.08

Input line: Return value of protein stability index for input "P14S" , no commentary.
Output line: 1.42

Input line: Return value of protein stability index for input "I15M" , no commentary.
Output line: 2.13

Input line: Return value of protein stability index for input "I17C" , no commentary.
Output line: 2.48

Input line: Return value of protein stability index for input "N12M" , no commentary.
Output line: 2.26

Input line: Return value of protein stability index for input "V13T" , no commentary.
Output line: 1.82

Input line: Return value of protein stability index for input "S19D" , no commentary.
Output line: 2.43

Input line: Return value of protein stability index for input "I7Q" , no commentary.
Output line: 2.52

Input line: Return value of protein stability index for input "G4K" , no commentary.
Output line: 2.82

Input line: Return value of protein stability index for input "E20S" , no commentary.
Output line: 1.82

Input line: Return value of protein stability index for input "N12K" , no commentary.
Output line: 1.91

Input line: Return value of protein stability index for input "F24V" , no commentary.
Output line: 2.42

Input line: Return value of protein stability index for input "F18N" , no commentary.
Output line: 3.17

Input line: Return value of protein stability index for input "R23L" , no commentary.
Output line: 1.28

Input line: Return value of protein stability index for input "S3I" , no commentary.
Output line: 1.58

Input line: Return value of protein stability index for input "I22N" , no commentary.
Output line: 2.82

Input line: Return value of protein stability index for input "V11Q" , no commentary.
Output line: 2.03

Input line: Return value of protein stability index for input "Q2R" , no commentary.
Output line: 2.07

Input line: Return value of protein stability index for input "E21R" , no commentary.
Output line: 2.38

Input line: Return value of protein stability index for input "Q2C" , no commentary.
Output line: 2.19

Input line: Return value of protein stability index for input "N12F" , no commentary.
Output line: 1.35

Input line: Return value of protein stability index for input "I15D" , no commentary.
Output line: 2.33

Input line: Return value of protein stability index for input "F24H" , no commentary.
Output line: 2.4

Input line: Return value of protein stability index for input "N12C" , no commentary.
Output line: 2.62

Input line: Return value of protein stability index for input "Y1I" , no commentary.
Output line: 2.53

Input line: Return value of protein stability index for input "V13C" , no commentary.
Output line: 1.78

Input line: Return value of protein stability index for input "R9C" , no commentary.
Output line: 2.35

Input line: Return value of protein stability index for input "Y1G" , no commentary.
Output line: 2.83

Input line: Return value of protein stability index for input "Y1N" , no commentary.
Output line: 2.89

Input line: Return value of protein stability index for input "P14L" , no commentary.
Output line: 2.85

Input line: Return value of protein stability index for input "R9Q" , no commentary.
Output line: 1.87

Input line: Return value of protein stability index for input "I17W" , no commentary.
Output line: 1.23

Input line: Return value of protein stability index for input "I17V" , no commentary.
Output line: 2.48

Input line: Return value of protein stability index for input "F18D" , no commentary.
Output line: 2.3

Input line: Return value of protein stability index for input "G4A" , no commentary.
Output line: 1.69

Input line: Return value of protein stability index for input "R6V" , no commentary.
Output line: 1.95

Input line: Return value of protein stability index for input "G5P" , no commentary.
Output line: 2.32

Input line: Return value of protein stability index for input "E20R" , no commentary.
Output line: 1.61

Input line: Return value of protein stability index for input "G5M" , no commentary.
Output line: 1.37

Input line: Return value of protein stability index for input "V11P" , no commentary.
Output line: 1.83

Input line: Return value of protein stability index for input "I17F" , no commentary.
Output line: 1.76

Input line: Return value of protein stability index for input "Y1K" , no commentary.
Output line: 2.77

Input line: Return value of protein stability index for input "I7H" , no commentary.
Output line: 1.57
